# TARGET: murine IRE1α Phe889Ala (Mus musculus, UniProt Q9EQY0, F889A/N772Y)
# Sequence (Q9EQY0 499-977 N772Y/F889A): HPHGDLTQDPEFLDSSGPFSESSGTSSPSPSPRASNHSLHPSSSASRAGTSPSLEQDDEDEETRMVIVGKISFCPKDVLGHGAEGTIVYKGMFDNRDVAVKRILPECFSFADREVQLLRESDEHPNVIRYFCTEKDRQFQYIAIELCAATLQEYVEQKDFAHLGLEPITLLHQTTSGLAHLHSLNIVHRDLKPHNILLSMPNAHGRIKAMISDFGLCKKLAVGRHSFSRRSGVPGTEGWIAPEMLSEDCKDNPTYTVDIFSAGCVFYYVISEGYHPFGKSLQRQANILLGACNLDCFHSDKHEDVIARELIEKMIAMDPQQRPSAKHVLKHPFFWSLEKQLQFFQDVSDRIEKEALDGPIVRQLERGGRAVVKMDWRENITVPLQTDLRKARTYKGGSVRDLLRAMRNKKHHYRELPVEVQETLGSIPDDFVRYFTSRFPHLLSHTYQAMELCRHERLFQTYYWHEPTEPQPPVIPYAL
# PROTOCOL TEXT: Direct binding by micro-scale thermophoresis
# RECORDED CONDITIONS: Kd (avg), average
MEASUREMENT TYPE: pKd
Field pKd (float): negative decimal logarithm of the concentration in molar.

# input Recall the recorded pKd for COCCOCCc1c(C)c2cc(OC)c(O)c(C=O)c2oc1=O with murine IRE1α Phe889Ala (Mus musculus, UniProt Q9EQY0, F889A/N772Y) and state it.
# output 4.96

----------
# TARGET: murine IRE1α (Mus musculus, UniProt Q9EQY0, N772Y)
# Sequence (Q9EQY0 499-977 N772Y): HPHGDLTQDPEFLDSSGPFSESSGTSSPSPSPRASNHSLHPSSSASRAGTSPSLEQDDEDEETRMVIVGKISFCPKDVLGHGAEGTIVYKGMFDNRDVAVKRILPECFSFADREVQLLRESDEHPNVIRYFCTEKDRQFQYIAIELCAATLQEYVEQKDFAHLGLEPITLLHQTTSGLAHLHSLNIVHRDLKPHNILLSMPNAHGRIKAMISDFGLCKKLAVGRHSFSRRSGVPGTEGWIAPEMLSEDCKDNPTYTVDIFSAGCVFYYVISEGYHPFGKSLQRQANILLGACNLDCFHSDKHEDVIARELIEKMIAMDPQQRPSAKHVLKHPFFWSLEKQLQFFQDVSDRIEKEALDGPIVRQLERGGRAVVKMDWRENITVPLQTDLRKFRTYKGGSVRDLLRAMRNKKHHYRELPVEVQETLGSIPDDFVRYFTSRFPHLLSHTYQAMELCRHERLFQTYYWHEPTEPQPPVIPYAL
# PROTOCOL TEXT: biochemical
# RECORDED CONDITIONS: IC50 IRE1α RNase activity, naphthol analogue series, average n=4 +/- s.d.
MEASUREMENT TYPE: pIC50
Field pIC50 (float): negative decimal logarithm of the concentration in molar.

# input What value of measured pIC50 is listed for O=Cc1c(O)ccc2ccc(Br)cc12 ?
# output 6.41

# input Quick one: CN1CCN(C(=O)c2ccc(-c3ccc4ccc(O)c(C=O)c4c3)cc2)CC1
# output 5.24

----------
# TARGET: IRE1α auto-kinase activity (Mus musculus, UniProt Q9EQY0, N772Y)
# Sequence (Q9EQY0 499-977 N772Y): as the sequence (Q9EQY0 499-977 N772Y) above
# PROTOCOL TEXT: IRE1α auto-kinase
pIC50: −log10 of the molar value.
MEASUREMENT TYPE: pIC50

# input What value of measured pIC50 is listed for COCCOCCc1c(C)c2cc(OC)c(O)c(C=O)c2oc1=O [MKC9989] ?
# output < 5.00

----------
# TARGET: murine IRE1α Asn906Leu (Mus musculus, UniProt Q9EQY0, N772Y/N906L)
# PROTOCOL TEXT: Direct binding by micro-scale thermophoresis
# RECORDED CONDITIONS: Kd (avg), average
MEASUREMENT TYPE: Kd (µM)
The reply should contain only the number, in µM.

# input What value of measured Kd is listed for COCCOCCc1c(C)c2cc(OC)c(O)c(C=O)c2oc1=O ?
# output 8.9

----------
# TARGET: murine IRE1α His910Ala (Mus musculus, UniProt Q9EQY0, H910A/N772Y)
# PROTOCOL TEXT: Direct binding by micro-scale thermophoresis
# RECORDED CONDITIONS: Kd (avg), average
MEASUREMENT TYPE: Kd (µM)
The reply should contain only the number, in µM.

# input What value of measured Kd is listed for COCCOCCc1c(C)c2cc(OC)c(O)c(C=O)c2oc1=O ?
# output 5.3

The reported numbers originate from paper PMC4486471.
